tested on: A375 cells; assay: Screening test 2: doxorubicin cytotoxicity, neutral red cell viability; assay type: cell-based; settings: A375, paniceins 10 μM, dxr 1.5 μM, 24 hours
measuredEndpoint: increase of cell mortality induced by dxr (dxr cytotoxicity enhancement)

>>> print(df.to_string())
                                   compound     result
0  Cc1cc(O)c(C=O)c(C)c1CCC1(C)C=Cc2cc(O)ccc2O1 (stereo not shown)  no effect
1  C/C(=C\Cc1cc(O)ccc1O)CCc1c(C)cc(O)c(C=O)c1C  no effect
2  C/C(=C\Cc1cc(O)ccc1O)CCc1c(C)c(O)c(O)c(C=O)c1C [P2, Panicein C]  no effect
